Hey, just so you know, these numbers are from the supplement of paper PMC9112550.

Test system: Escherichia coli TOP10
assay-method-text: shrunken log2 fold change of peptide-encoding DNA abundance (4.5 h post-induction vs induction); higher = less antimicrobial activity (less host growth inhibition)
condition-label: time post-induction: 4.5 h; library: site-saturation at positions 5, 18, 19, 20

- sequence-input: "RRIRQRPPRLPRPRPRPCFLPRP"
  experimental-target: "Escherichia coli TOP10"
  shrunken log2 fold change: 0.115
- sequence-input: "RRIRQRPPRLPRPRPRPRKLPRP"
  experimental-target: "Escherichia coli TOP10"
  shrunken log2 fold change: 0.0501
- sequence-input: "RRIRFRPPRLPRPRPRPNLDPRP"
  experimental-target: "Escherichia coli TOP10"
  shrunken log2 fold change: -0.18
- sequence-input: "RRIRVRPPRLPRPRPRPHKRPRP"
  experimental-target: "Escherichia coli TOP10"
  shrunken log2 fold change: 0.06
- sequence-input: "RRIRDRPPRLPRPRPRPMDNPRP"
  experimental-target: "Escherichia coli TOP10"
  shrunken log2 fold change: -0.0115
- sequence-input: "RRIRRRPPRLPRPRPRPANHPRP"
  experimental-target: "Escherichia coli TOP10"
  shrunken log2 fold change: 0.097
- sequence-input: "RRIRPRPPRLPRPRPRPTLTPRP"
  experimental-target: "Escherichia coli TOP10"
  shrunken log2 fold change: 1.22
- sequence-input: "RRIRSRPPRLPRPRPRPLCYPRP"
  experimental-target: "Escherichia coli TOP10"
  shrunken log2 fold change: -0.535
- sequence-input: "RRIRIRPPRLPRPRPRPMLSPRP"
  experimental-target: "Escherichia coli TOP10"
  shrunken log2 fold change: -0.403
- sequence-input: "RRIRSRPPRLPRPRPRPGWKPRP"
  experimental-target: "Escherichia coli TOP10"
  shrunken log2 fold change: 0.0342
- sequence-input: "RRIRCRPPRLPRPRPRPAISPRP"
  experimental-target: "Escherichia coli TOP10"
  shrunken log2 fold change: 0.0324
- sequence-input: "RRIRQRPPRLPRPRPRPYANPRP"
  experimental-target: "Escherichia coli TOP10"
  shrunken log2 fold change: -0.264
- sequence-input: "RRIRHRPPRLPRPRPRPSFSPRP"
  experimental-target: "Escherichia coli TOP10"
  shrunken log2 fold change: -0.483
- sequence-input: "RRIRIRPPRLPRPRPRPAVFPRP"
  experimental-target: "Escherichia coli TOP10"
  shrunken log2 fold change: 0.103
- sequence-input: "RRIRTRPPRLPRPRPRPNNPPRP"
  experimental-target: "Escherichia coli TOP10"
  shrunken log2 fold change: -0.684

----------
System: Escherichia coli TOP10
assay-method-text: shrunken log2 fold change of peptide-encoding DNA abundance (4.5 h post-induction vs induction); higher = less antimicrobial activity (less host growth inhibition)
condition-label: time post-induction: 4.5 h; library: site-saturation at positions 5, 18, 19, 20
Label scheme for shrunken log2 fold change: lower than -0.2 is FALSE, -0.2 and above is TRUE.

- sequence-input: "RRIRCRPPRLPRPRPRPRHRPRP"
  discrete-label: "FALSE"
- sequence-input: "RRIRLRPPRLPRPRPRPKPQPRP"
  discrete-label: "TRUE"
- sequence-input: "RRIRVRPPRLPRPRPRPPLLPRP"
  discrete-label: "TRUE"
- sequence-input: "RRIRNRPPRLPRPRPRPWIDPRP"
  discrete-label: "TRUE"
- sequence-input: "RRIRSRPPRLPRPRPRPDFSPRP"
  discrete-label: "TRUE"
- sequence-input: "RRIRWRPPRLPRPRPRPKFFPRP"
  discrete-label: "TRUE"
- sequence-input: "RRIRVRPPRLPRPRPRPRKIPRP"
  discrete-label: "TRUE"
- sequence-input: "RRIRYRPPRLPRPRPRPEWGPRP"
  discrete-label: "TRUE"
- sequence-input: "RRIRTRPPRLPRPRPRPQIHPRP"
  discrete-label: "TRUE"
- sequence-input: "RRIRGRPPRLPRPRPRPQCNPRP"
  discrete-label: "TRUE"
- sequence-input: "RRIRYRPPRLPRPRPRPRDTPRP"
  discrete-label: "FALSE"
- sequence-input: "RRIRWRPPRLPRPRPRPLHVPRP"
  discrete-label: "TRUE"
- sequence-input: "RRIRHRPPRLPRPRPRPIYHPRP"
  discrete-label: "TRUE"
- sequence-input: "RRIRFRPPRLPRPRPRPHFTPRP"
  discrete-label: "FALSE"
- sequence-input: "RRIRARPPRLPRPRPRPGTFPRP"
  discrete-label: "TRUE"
- sequence-input: "RRIRFRPPRLPRPRPRPAEFPRP"
  discrete-label: "TRUE"
- sequence-input: "RRIRYRPPRLPRPRPRPPFSPRP"
  discrete-label: "FALSE"
- sequence-input: "RRIRFRPPRLPRPRPRPRMFPRP"
  discrete-label: "TRUE"
- sequence-input: "RRIRGRPPRLPRPRPRPFLHPRP"
  discrete-label: "TRUE"
- sequence-input: "RRIRLRPPRLPRPRPRPSDHPRP"
  discrete-label: "FALSE"
- sequence-input: "RRIRYRPPRLPRPRPRPIWCPRP"
  discrete-label: "FALSE"
- sequence-input: "RRIRCRPPRLPRPRPRPYSRPRP"
  discrete-label: "TRUE"
- sequence-input: "RRIRTRPPRLPRPRPRPTRTPRP"
  discrete-label: "TRUE"
- sequence-input: "RRIRQRPPRLPRPRPRPFDKPRP"
  discrete-label: "TRUE"
- sequence-input: "RRIRPRPPRLPRPRPRPWVSPRP"
  discrete-label: "TRUE"
- sequence-input: "RRIRWRPPRLPRPRPRPDFGPRP"
  discrete-label: "TRUE"
- sequence-input: "RRIRWRPPRLPRPRPRPQSSPRP"
  discrete-label: "FALSE"
- sequence-input: "RRIRIRPPRLPRPRPRPGRNPRP"
  discrete-label: "TRUE"
- sequence-input: "RRIRMRPPRLPRPRPRPSLGPRP"
  discrete-label: "TRUE"
- sequence-input: "RRIRQRPPRLPRPRPRPMNKPRP"
  discrete-label: "TRUE"
- sequence-input: "RRIRTRPPRLPRPRPRPSECPRP"
  discrete-label: "TRUE"
- sequence-input: "RRIRIRPPRLPRPRPRPTDRPRP"
  discrete-label: "TRUE"

----------
Tested on: Escherichia coli TOP10;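 note: peptides expressed intracellularly from a pBAD plasmid library in pooled LB shake-flask culture, induced with 0.3% L-arabinose, DNA abundance read by NGS, three biological replicates, DESeq2 with apeglm shrinkage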
assay-method-text: shrunken log2 fold change of peptide-encoding DNA abundance (4.5 h post-induction vs induction); higher = less antimicrobial activity (less host growth inhibition)
condition-label: time post-induction: 4.5 h; library: site-saturation at positions 5, 18, 19, 20
Label scheme for shrunken log2 fold change: lower than -0.08 is criterion not met, -0.08 and above is criterion met.

- sequence-input: "RRIRERPPRLPRPRPRPGAQPRP"
  experimental-target: "Escherichia coli TOP10"
  discrete-label: "criterion not met"
- sequence-input: "RRIRDRPPRLPRPRPRPRIVPRP"
  experimental-target: "Escherichia coli TOP10"
  discrete-label: "criterion not met"
- sequence-input: "RRIRDRPPRLPRPRPRPLVHPRP"
  experimental-target: "Escherichia coli TOP10"
  discrete-label: "criterion met"
- sequence-input: "RRIRLRPPRLPRPRPRPLMSPRP"
  experimental-target: "Escherichia coli TOP10"
  discrete-label: "criterion met"
- sequence-input: "RRIRARPPRLPRPRPRPWKFPRP"
  experimental-target: "Escherichia coli TOP10"
  discrete-label: "criterion met"
- sequence-input: "RRIRWRPPRLPRPRPRPCPIPRP"
  experimental-target: "Escherichia coli TOP10"
  discrete-label: "criterion not met"
- sequence-input: "RRIRARPPRLPRPRPRPVPPPRP"
  experimental-target: "Escherichia coli TOP10"
  discrete-label: "criterion met"
- sequence-input: "RRIRKRPPRLPRPRPRPVADPRP"
  experimental-target: "Escherichia coli TOP10"
  discrete-label: "criterion met"
- sequence-input: "RRIRLRPPRLPRPRPRPCYDPRP"
  experimental-target: "Escherichia coli TOP10"
  discrete-label: "criterion met"
- sequence-input: "RRIRLRPPRLPRPRPRPYKCPRP"
  experimental-target: "Escherichia coli TOP10"
  discrete-label: "criterion met"
- sequence-input: "RRIRFRPPRLPRPRPRPMQHPRP"
  experimental-target: "Escherichia coli TOP10"
  discrete-label: "criterion met"
- sequence-input: "RRIRKRPPRLPRPRPRPMGPPRP"
  experimental-target: "Escherichia coli TOP10"
  discrete-label: "criterion met"
- sequence-input: "RRIRTRPPRLPRPRPRPSSQPRP"
  experimental-target: "Escherichia coli TOP10"
  discrete-label: "criterion not met"
- sequence-input: "RRIRVRPPRLPRPRPRPCIMPRP"
  experimental-target: "Escherichia coli TOP10"
  discrete-label: "criterion not met"
- sequence-input: "RRIRMRPPRLPRPRPRPTYYPRP"
  experimental-target: "Escherichia coli TOP10"
  discrete-label: "criterion not met"
- sequence-input: "RRIRYRPPRLPRPRPRPTPFPRP"
  experimental-target: "Escherichia coli TOP10"
  discrete-label: "criterion not met"
- sequence-input: "RRIRMRPPRLPRPRPRPKCAPRP"
  experimental-target: "Escherichia coli TOP10"
  discrete-label: "criterion met"
- sequence-input: "RRIRHRPPRLPRPRPRPIKRPRP"
  experimental-target: "Escherichia coli TOP10"
  discrete-label: "criterion met"
- sequence-input: "RRIRGRPPRLPRPRPRPDPRPRP"
  experimental-target: "Escherichia coli TOP10"
  discrete-label: "criterion met"
- sequence-input: "RRIRSRPPRLPRPRPRPADTPRP"
  experimental-target: "Escherichia coli TOP10"
  discrete-label: "criterion met"
- sequence-input: "RRIRTRPPRLPRPRPRPRNRPRP"
  experimental-target: "Escherichia coli TOP10"
  discrete-label: "criterion not met"
- sequence-input: "RRIRERPPRLPRPRPRPSYNPRP"
  experimental-target: "Escherichia coli TOP10"
  discrete-label: "criterion not met"
- sequence-input: "RRIRQRPPRLPRPRPRPASFPRP"
  experimental-target: "Escherichia coli TOP10"
  discrete-label: "criterion met"
- sequence-input: "RRIRKRPPRLPRPRPRPLIQPRP"
  experimental-target: "Escherichia coli TOP10"
  discrete-label: "criterion met"
- sequence-input: "RRIRYRPPRLPRPRPRPKKEPRP"
  experimental-target: "Escherichia coli TOP10"
  discrete-label: "criterion met"
- sequence-input: "RRIRHRPPRLPRPRPRPVPQPRP"
  experimental-target: "Escherichia coli TOP10"
  discrete-label: "criterion met"
- sequence-input: "RRIRSRPPRLPRPRPRPIATPRP"
  experimental-target: "Escherichia coli TOP10"
  discrete-label: "criterion met"
- sequence-input: "RRIRWRPPRLPRPRPRPRRWPRP"
  experimental-target: "Escherichia coli TOP10"
  discrete-label: "criterion met"
- sequence-input: "RRIRKRPPRLPRPRPRPSQCPRP"
  experimental-target: "Escherichia coli TOP10"
  discrete-label: "criterion met"
- sequence-input: "RRIRIRPPRLPRPRPRPHADPRP"
  experimental-target: "Escherichia coli TOP10"
  discrete-label: "criterion not met"
- sequence-input: "RRIRARPPRLPRPRPRPNIEPRP"
  experimental-target: "Escherichia coli TOP10"
  discrete-label: "criterion met"
